- studyTarget: T1, human TGFβ2, mature receptor-binding domain (human, UniProt P09858 303-414 (pig entry), The mature TGFβ2 is a disulfide-linked homodimer of this 112-residue chain. The 4A11 epitope spans both monomers (p-1207).)
- T1 construct: Peprotech; also called TGFb2
- T1 sequence: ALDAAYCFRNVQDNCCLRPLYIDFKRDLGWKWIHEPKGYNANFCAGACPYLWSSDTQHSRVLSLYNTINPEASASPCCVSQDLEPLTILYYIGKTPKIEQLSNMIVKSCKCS
- assayProcedure: BIAcore T200
propertyLabel: Kd (nM)

- binder: "h2A10.v2.4 (antibody, human IgG1, kappa, N297G, V domains shown) VH: EVQLLESGGGLVQPGGSLRLSCAASGFDFNSYGMSWVRQAPGKGLELVADIVSKTYNYTTYYSDSVKDRFTISRDDSKSTVYLQMNSLRAEDTAVYYCTVAPGGSFDYWGQGTLVTVSS VL: DIQLTQSPSSLSASVGDRVTITCRASQSVSISRFNLMHWYQHKPGKQPKLLIYRASNLASGVPSRFSGSGSGTDFTLTISSLQPEDFATYYCQHSRESPWTFGGGTKVEIKR"
  propertyLabel: "Kd"
  experimentalValue: 0.19
- binder: "h2A10.v2.9 (antibody, human IgG1, kappa, N297G, V domains shown) VH: EVQLLESGGGLVQPGGSLRLSCAASGFDFNSYGMSWVRQAPGKGLELVADIVSKTYNYTTYYSDSVKDRFTISRDDSKSTLYLQMNSLRAEDTAVYYCTVAPGGSFDYWGQGTLVTVSS VL: DIQLTQSPSSLSASVGDRVTITCRASQSVSISRFNLMHWYQHKPGKQPKLLIYRASNLASGIPSRFSGSGSGTDFTLTISSLQPEDFATYYCQHSRESPWTFGGGTKVEIKR"
  propertyLabel: "Kd"
  experimentalValue: 0.768
- binder: "2A10 (antibody, V domains shown, anti-TGFβ3; also called rat 2A10; r2A10) VH: EVQLVESGGGLVQPKGSLKLSCAASGFDFNSYGMSWVRQAPGKGLDLVADIVSKTYNYTTYYSDSVKDRFTISRDDSQSMVYLQMDNLKTEDTALYYCTVAPGGSFDYWGQGVMVTVSS VL: DIVLTQSPALAVSLGQRATISCRASQSVSISRFNLMHWYQHKPGQQPKLLIYRASNLASGIPARFSGSGSGTDFTLTINPVQADDLATYYCQHSRESPWTFGGGTKLEIK"
  propertyLabel: "Kd"
  experimentalValue: 0.0628
- binder: "h2A10.v2.7 (antibody, human IgG1, kappa, N297G, V domains shown) VH: EVQLLESGGGLVQPGGSLRLSCAASGFDFNSYGMSWVRQAPGKGLELVADIVSKTYNYTTYYSDSVKDRFTISRDNSKSTVYLQMNSLRAEDTAVYYCTVAPGGSFDYWGQGTLVTVSS VL: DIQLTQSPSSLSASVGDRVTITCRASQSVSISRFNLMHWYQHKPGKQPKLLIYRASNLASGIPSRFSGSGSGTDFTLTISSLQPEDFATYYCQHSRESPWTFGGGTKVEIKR"
  propertyLabel: "Kd"
  experimentalValue: 0.921
- binder: "h2A10.v2.6 (antibody, human IgG1, kappa, N297G, V domains shown) VH: EVQLLESGGGLVQPGGSLRLSCAASGFDFNSYGMSWVRQAPGKGLELVSDIVSKTYNYTTYYSDSVKDRFTISRDDSKSTVYLQMNSLRAEDTAVYYCTVAPGGSFDYWGQGTLVTVSS VL: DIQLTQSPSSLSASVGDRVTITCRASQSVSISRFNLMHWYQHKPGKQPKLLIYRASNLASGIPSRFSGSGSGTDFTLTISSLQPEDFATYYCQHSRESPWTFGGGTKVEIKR"
  propertyLabel: "Kd"
  experimentalValue: 0.249

From: patent US20210301005A1
